Values compiled from ChEMBL document CHEMBL1275349.

- Method: Agonist activity at NAADP receptor in sea urchin egg homogenate assessed as induction of Ca2+ release by Fluo-3 staining based fluorimetric assay
- Format: functional, Strongylocentrotus purpuratus
pEC50: −log10 of the molar value.
Assay readout: pEC50

A. Nc1cc[n+]([C@H]2O[C@@H](COP(=O)(O)OP(=O)(O)OC[C@H]3O[C@@H](n4cnc5c(N)ncnc54)[C@H](OP(=O)(O)O)[C@@H]3O)[C@H](O)[C@@H]2O)cc1C(=O)[O-]
B. [N-]=[N+]=Nc1cc(C(=O)[O-])c[n+]([C@H]2O[C@@H](COP(=O)(O)OP(=O)(O)OC[C@H]3O[C@@H](n4cnc5c(N)ncnc54)[C@H](OP(=O)(O)O)[C@@H]3O)[C@H](O)[C@@H]2O)c1
-- ask Consider entries A and B . Which has the numerically lower pEC50? State the label of the item chosen.
-- reply A
